System: LOC_OS03G04050-cb001
assayDetails: thermal shift delta Tm vs DMSO control; higher = stronger stabilization (binding);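 note: purified Escherichia coli-expressed rice kinase domain construct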
conditionLabel: 12.5 µM; protein concentration 2 µM
Returns one of true (1) or false (0); true (1) when thermal shift delta Tm is >= 0.4 °C.

Examples from the recorded data:
1. Cc1cc(Nc2cc(N)ncn2)c(=O)n2c1C(=O)NC21CCCCC1
false (0)
2. Cc1cc(Nc2cc(N3CCN(C)CC3)nc(Sc3ccc(NC(=O)C4CC4)cc3)n2)n[nH]1 [Tozasertib (VX-680, MK-0457)]
true (1)
3. COc1ccc(Cl)cc1NC(=O)Nc1cc(C)nc2ccccc12
false (0)
4. Cn1cnc2c(F)c(Nc3ccc(Br)cc3F)c(C(=O)NOCCO)cc21
true (1)

# next molecule below
Input line: Could you verify whether the entry CNC(=O)c1cc(COc2nnc(Nc3ccc(Cl)cc3)c3ccoc23)ccn1 [Telatinib] shows thermal shift delta Tm of no less than 0.4 °C?
Output line: false (0)

* * *

Test system: LOC_OS05G30820-cb001
assayDetails: thermal shift delta Tm vs DMSO control; higher = stronger stabilization (binding)
conditionLabel: 12.5 µM; protein concentration 2 µM
Lab note: anything with thermal shift delta Tm at or over 0.5 °C counts as 1.0; the rest go in 0.0.

Worked examples, 3 compounds total:
1) N#Cc1cccc(-c2c[nH]c3ncnc(N4CCOCC4)c23)c1
0.0
2) O=C1Nc2ccc(I)cc2/C1=C/c1cc(Br)c(O)c(Br)c1
1.0
3) CC[C@H](CO)Nc1nc(NCc2ccccc2)c2ncn(C(C)C)c2n1 [Roscovitine (Seliciclib,CYC202)]
0.0

Input line: Does thermal shift delta Tm meet or surpass 0.5 °C for CC(C)c1cnn2c(NCc3ccccc3-n3cccn3)nc(OC3CCCNC3)nc12 (configuration not stated) ?
Output line: 0.0

Input line: thermal shift delta Tm >= 0.5 °C for O=C(Nc1cccc(Nc2ncc(Br)c(NCCc3cnc[nH]3)n2)c1)N1CCCC1 ?
Output line: 1.0

Input line: # bool: thermal shift delta Tm of CO[C@H]1C[C@@H]2CC[C@@H](C)[C@@](O)(O2)C(=O)C(=O)N2CCCC[C@H]2C(=O)O[C@H]([C@H](C)C[C@@H]2CC[C@@H](OP(C)(C)=O)[C@H](OC)C2)CC(=O)[C@H](C)/C=C(\C)[C@@H](O)[C@@H](OC)C(=O)[C@H](C)C[C@H](C)/C=C/C=C/C=C/1C [Ridaforolimus (Deforolimus, MK-8669)] >= 0.5 °C
Output line: 0.0

* * *

Recorded thermal shift delta Tm, one value per entry.
Test system: LOC_OS01G67340-cb003
assayDetails: thermal shift delta Tm vs DMSO control; higher = stronger stabilization (binding)
conditionLabel: 12.5 µM; protein concentration 2 µM
Counter-ions that a name gives are not always drawn.
Write it as a number; the unit °C goes unstated.

Consider the reported thermal shift delta Tm for these molecules:
1) O=c1c(-c2ccc(O)cc2)coc2cc(O)cc(O)c12
-0.02
2) Nc1ncccc1-c1nc2ccc(-c3ccccc3)nc2n1-c1ccc(C2(N)CCC2)cc1 [Miransertib (ARQ 092) HCl]
0.08

Input line: I'd like to know its thermal shift delta Tm. The molecule in question is C[C@@H](Nc1cc(F)cc(F)c1)c1cc(C(=O)N(C)C)cc2c(=O)cc(N3CCOCC3)oc12
Output line: 0.36

Input line: May I ask what thermal shift delta Tm has been recorded for COc1cc2nccc(Oc3ccc(NC(=O)NC4CC4)c(Cl)c3)c2cc1C(N)=O [Lenvatinib (E7080)] ?
Output line: -0.21

Input line: Fill blank: measured thermal shift delta Tm of the molecule Cn1cnc2c(F)c(Nc3ccc(Br)cc3F)c(C(=O)NOCCO)cc21 is ____.
Output line: 0.06

Input line: For CC(=O)Nc1nc(C)c(-c2ccc(Cl)c(S(=O)(=O)NCCO)c2)s1 , what is its reported thermal shift delta Tm?
Output line: 0.18

Input line: Item COc1ccc(CCNCc2ccc(OCc3ccc(Cl)nc3)c(OC)c2)cc1OC has what recorded thermal shift delta Tm?
Output line: 0.24

* * *

Tested on: LOC_OS01G39600-cb002
assayDetails: thermal shift delta Tm vs DMSO control; higher = stronger stabilization (binding)
conditionLabel: 12.5 µM; protein concentration 2 µM
thermal shift delta Tm reference

1) CCn1c(N)c(C(=O)NC)c(=O)c2ccc(C#CC(C)(O)COC)nc21 (centres undefined)
-1.69 °C
2) c1cn2cc(-c3ccc4cn[nH]c4c3)nc(Nc3ccc(N4CCOCC4)cc3)c2n1
4.22 °C

Input line: Which thermal shift delta Tm value belongs to CNc1nc(Nc2cnn([C@H]3CCN(C4COC4)C[C@@H]3F)c2Cl)ncc1C(F)(F)F ?
Output line: 0.09 °C

Input line: Would you kindly share the measured thermal shift delta Tm for CC(C)CCN1c2nc(Nc3cc(F)c(O)c(F)c3)ncc2N(C)C(=O)C1C (centres undefined) ?
Output line: 3.67 °C

Input line: Reported thermal shift delta Tm for Nc1ncc(-c2ccnc(Nc3ccncc3)n2)c(CC2CC2)n1 : what is it?
Output line: 0.29 °C

* * *

Tested on: LOC_OS01G52050-cb004
Sequence (as listed by the source): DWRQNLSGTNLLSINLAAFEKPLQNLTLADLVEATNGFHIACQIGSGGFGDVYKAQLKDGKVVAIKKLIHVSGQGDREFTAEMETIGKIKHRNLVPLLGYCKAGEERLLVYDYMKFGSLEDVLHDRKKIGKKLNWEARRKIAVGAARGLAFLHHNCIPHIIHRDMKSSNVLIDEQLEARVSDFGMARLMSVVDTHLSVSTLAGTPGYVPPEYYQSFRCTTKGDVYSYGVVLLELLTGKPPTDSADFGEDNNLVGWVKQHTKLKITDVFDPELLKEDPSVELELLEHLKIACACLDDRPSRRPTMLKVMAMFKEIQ
assayDetails: thermal shift delta Tm vs DMSO control; higher = stronger stabilization (binding)
conditionLabel: 12.5 µM; protein concentration 2 µM
Measured thermal shift delta Tm, listed per entry for reference.
State the answer as a number, implicitly in °C.

1) Cc1cccc(CC(=O)N2CCc3c2ccc(-c2cn(C)c4ncnc(N)c24)c3F)n1
1.35

Consider the record given below.
Input line: Suppose we examine the compound CN1CCN(c2nc(C3=C(c4c[nH]c5ccccc45)C(=O)NC3=O)c3ccccc3n2)CC1 ; what thermal shift delta Tm value has been reported?
Output line: -0.06

* * *

System: LOC_OS05G16824-cb004
assayDetails: thermal shift delta Tm vs DMSO control; higher = stronger stabilization (binding)
conditionLabel: 12.5 µM; protein concentration 2 µM
Where a name gives a salt, the structure may show the parent alone.
Would you mind labelling by thermal shift delta Tm? At or over 0.07 °C is rule met, under is rule not met.

1) C=CC(=O)Nc1cc(Nc2nccc(-c3cn(C)c4ccccc34)n2)c(OC)cc1N(C)CCN(C)C [Osimertinib (AZD9291)]
rule not met

Input line: Say whether O=C(Nc1cnn2ccc(N3CCC[C@@H]3c3cc(F)ccc3F)nc12)N1CC[C@H](O)C1 [Larotrectinib (LOXO-101) sulfate] shows thermal shift delta Tm of 0.07 °C or more.
Output line: rule not met

Input line: Decide: is the reported value of thermal shift delta Tm for C=CC(=O)Nc1cccc(Oc2nc(Nc3ccc(N4CCN(C)CC4)cc3)ncc2Cl)c1 equal to or greater than 0.07 °C?
Output line: rule met

Input line: Has Cn1sc(=O)n(Cc2ccccc2)c1=O a recorded thermal shift delta Tm greater than or equal to 0.07 °C?
Output line: rule met

* * *

System: LOC_OS04G38480-cb003
Sequence (as listed by the source): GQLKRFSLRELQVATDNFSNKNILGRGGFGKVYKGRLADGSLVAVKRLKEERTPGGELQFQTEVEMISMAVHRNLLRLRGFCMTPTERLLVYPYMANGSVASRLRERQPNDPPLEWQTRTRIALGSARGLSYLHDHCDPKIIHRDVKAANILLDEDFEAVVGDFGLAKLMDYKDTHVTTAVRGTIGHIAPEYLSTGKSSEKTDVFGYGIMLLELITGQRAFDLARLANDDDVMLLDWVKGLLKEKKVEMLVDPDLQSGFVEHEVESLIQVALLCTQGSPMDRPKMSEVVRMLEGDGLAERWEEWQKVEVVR
assayDetails: thermal shift delta Tm vs DMSO control; higher = stronger stabilization (binding)
conditionLabel: 12.5 µM; protein concentration 2 µM
Counter-ions that a name gives are not always drawn.
Reported values of thermal shift delta Tm for individual entries
Numeric only. Scale: °C

Below, 6 compounds whose answers are already recorded.
1) O=C(c1ccc(/C=C/c2n[nH]c3ccccc23)cc1)N1CCNCC1
2.61
2) CCS(=O)(=O)N1CC(CC#N)(n2cc(-c3ncnc4[nH]ccc34)cn2)C1
0.44
3) COc1cc(N2CCC(N3CCN(C)CC3)CC2)ccc1Nc1ncnc(Nc2ccccc2S(=O)(=O)C(C)C)n1
1.16
4) Cc1ccc(NC(=O)c2ccc(CN3CCN(C)CC3)cc2)cc1Nc1nccc(-c2cccnc2)n1 [Imatinib Mesylate (STI571)]
0.34
5) NCC(=O)Nc1ccc(-n2nc(C(F)(F)F)cc2-c2ccc3c(ccc4ccccc43)c2)cc1
1.25
6) CCc1cnn2c(NCc3ccc[n+]([O-])c3)cc(N3CCCC[C@H]3CCO)nc12
0.56

Input line: Field: thermal shift delta Tm (LOC_OS04G38480-cb003). Entry: Cc1ccc(C(=O)Nc2cccc(C(F)(F)F)c2)cc1Nc1nc(-c2cccnc2)nc2c1cnn2C
Output line: 0.47

Input line: Notebook entry, LOC_OS04G38480-cb003 assay: thermal shift delta Tm of Cc1cc(Nc2ncnc3ccc(NC4=NC(C)(C)CO4)cc23)ccc1Oc1ccn2ncnc2c1 [Irbinitinib (ARRY-380, ONT-380)] = ?
Output line: 0.82

Input line: // fetch LOC_OS04G38480-cb003 thermal shift delta Tm for CN1CCN(C2CCN(C(=O)Nc3cc(Oc4ccc(NC(=O)C5(C(=O)Nc6ccc(F)cc6)CC5)c(F)c4)ccn3)CC2)CC1 [Golvatinib (E7050)]
Output line: 1.71

Input line: State its thermal shift delta Tm on LOC_OS04G38480-cb003: COc1cc(Nc2ncc(F)c(Nc3ccc4c(n3)NC(=O)C(C)(C)O4)n2)cc(OC)c1OC [R406 (free base)]
Output line: 4.51

Input line: Find the measured thermal shift delta Tm: item FC(F)c1nc2ccccc2n1-c1nc(N2CCOCC2)nc(N2CCOCC2)n1 , target or system LOC_OS04G38480-cb003.
Output line: 1.98
